biological target: Voltage-gated potassium channel subunit beta-2 (Rattus norvegicus) (UniProt P62483); test: enhancers of rat Kvbeta2 NADPH turnover – biochemical, NADPH fluorescence, primary screen (AID 623); conditions: Recombinant KvBeta, NADPH fluorescence decrease slope, 10 min; at 10 µM; hits give low values;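 note: fluorescence intensity change per second fitted from 20 to 320 s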
Sequence (P62483 whole entry, looked up): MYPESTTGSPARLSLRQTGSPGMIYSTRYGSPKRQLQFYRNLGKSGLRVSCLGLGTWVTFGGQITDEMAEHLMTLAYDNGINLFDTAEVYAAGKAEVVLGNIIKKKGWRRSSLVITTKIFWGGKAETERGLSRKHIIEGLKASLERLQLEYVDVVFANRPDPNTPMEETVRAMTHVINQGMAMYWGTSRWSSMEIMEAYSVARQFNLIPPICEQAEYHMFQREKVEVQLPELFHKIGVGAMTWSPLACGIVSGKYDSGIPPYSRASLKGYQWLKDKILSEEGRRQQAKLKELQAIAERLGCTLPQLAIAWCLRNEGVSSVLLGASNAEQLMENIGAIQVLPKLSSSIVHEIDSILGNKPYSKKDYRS
Entries and their NADPH fluorescence slope
Response field accepts a number only; no unit should be typed.

Recorded results for 5 compounds are shown here.
Cn1cccc1C(=O)NC(=O)CSc1nnc(C2CC2)n1-c1ccccc1 = 4.6e-06
COc1ccccc1CNS(=O)(=O)c1cccc(S(=O)(=O)N2CCOCC2)c1 = 2.6e-05
Cc1ccc(-c2c3c(=O)n(C)c(=O)n(C)c3cn2CCCN2CCOCC2)cc1 = 2.2e-05
c1ccc(CC2CCN(Cc3nc(-c4ccccc4)no3)CC2)cc1 = -1.9e-05
Cc1cccc(OCC(=O)NCC(=O)n2nc(C)cc2C)c1 = -9.5e-06

Okay, next one:
Look up and report measured NADPH fluorescence slope for this entry: CN(CC(O)COCc1cccs1)C1CCCCC1 (stereo unspecified)
-4.5e-05
